Test system: Escherichia coli
assay.name: Resistance index, MIC for aminoglycosides-resistant Escherichia coli XL1-blue harboring pSF815 expressing AAC(6')-APH(2'') enzyme to MIC for Escherichia coli XL1-blue
Format: functional
measurement.name: Ratio
Provide a numeric answer; units are not to be included.

smiles.representation	Ratio
NC[C@@H]1O[C@H](O[C@H]2[C@@H](O)[C@H](O[C@@H]3[C@@H](O)[C@H](N)C[C@H](N)[C@H]3O[C@H]3O[C@H](CN)[C@@H](O)[C@H](O)[C@H]3N)O[C@@H]2C(=O)NCc2cn(Cc3ccc(CN4CCN(c5cc6c(cc5F)c(=O)c(C(=O)O)cn6C5CC5)CC4)cc3)nn2)[C@H](N)[C@@H](O)[C@@H]1O	1
NC[C@@H]1O[C@H](O[C@H]2[C@@H](O)[C@H](O[C@@H]3[C@@H](O)[C@H](N)C[C@H](N)[C@H]3O[C@H]3O[C@H](CN)[C@@H](O)[C@H](O)[C@H]3N)O[C@@H]2C(=O)Nc2ccc(-c3cn(Cc4ccc(CN5CCN(c6cc7c(cc6F)c(=O)c(C(=O)O)cn7C6CC6)CC5)cc4)nn3)cc2)[C@H](N)[C@@H](O)[C@@H]1O	8

Let's switch to this compound now.
Qu. Given NC[C@@H]1O[C@H](O[C@H]2[C@@H](O)[C@H](O[C@@H]3[C@@H](O)[C@H](N)C[C@H](N)[C@H]3O[C@H]3O[C@H](CN)[C@@H](O)[C@H](O)[C@H]3N)O[C@@H]2COCc2cn(CCN3CCN(c4cc5c(cc4F)c(=O)c(C(=O)O)cn5C4CC4)CC3)nn2)[C@H](N)[C@@H](O)[C@@H]1O , respond with its Ratio.
Ans. 4

###

Quick list: Ratio per entry.
Tested on: Escherichia coli
assay.name: Resistance index, MIC for aminoglycosides-resistant Escherichia coli XL1-blue harboring pSF815 expressing AAC(6')-APH(2'') enzyme to MIC for Escherichia coli XL1-blue
Assay type: functional
Provide a numeric answer; units are not to be included.

Qu. Given NC[C@@H]1O[C@H](O[C@H]2[C@@H](O)[C@H](O[C@@H]3[C@@H](O)[C@H](N)C[C@H](N)[C@H]3O[C@H]3O[C@H](CN)[C@@H](O)[C@H](O)[C@H]3N)O[C@@H]2C(=O)NCc2cn(Cc3cccc(CN4CCN(c5cc6c(cc5F)c(=O)c(C(=O)O)cn6C5CC5)CC4)c3)nn2)[C@H](N)[C@@H](O)[C@@H]1O , respond with its Ratio.
Ans. 4

Qu. Given NC[C@@H]1O[C@H](O[C@H]2[C@@H](O)[C@H](O[C@@H]3[C@@H](O)[C@H](N)C[C@H](N)[C@H]3O[C@H]3O[C@H](CN)[C@@H](O)[C@H](O)[C@H]3N)O[C@@H]2C(=O)NCc2cn(CC(O)CN3CCN(c4cc5c(cc4F)c(=O)c(C(=O)O)cn5C4CC4)CC3)nn2)[C@H](N)[C@@H](O)[C@@H]1O (stereo partly drawn) , respond with its Ratio.
Ans. 8

###

Quick list: MIC per entry.
Test system: Escherichia coli
assay.name: Antibacterial activity against Escherichia coli R477-100 by double-microdilution method
Type: functional
Lab book: enter the figure in µg/mL, no units written.

compound	unit.descriptor	MIC
NC[C@@H]1O[C@H](O[C@H]2[C@@H](O)[C@H](O[C@@H]3[C@@H](O)[C@H](N)C[C@H](N)[C@H]3O[C@H]3O[C@H](CN)[C@@H](O)[C@H](O)[C@H]3N)O[C@@H]2C(=O)NCc2cn(CCOCCN3CCN(c4cc5c(cc4F)c(=O)c(C(=O)O)cn5C4CC4)CC3)nn2)[C@H](N)[C@@H](O)[C@@H]1O	µg/mL	12
NC[C@@H]1O[C@H](O[C@H]2[C@@H](O)[C@H](O[C@@H]3[C@@H](O)[C@H](N)C[C@H](N)[C@H]3O[C@H]3O[C@H](CN)[C@@H](O)[C@H](O)[C@H]3N)O[C@@H]2C(=O)Nc2ccc(-c3cn(CCOCCN4CCN(c5cc6c(cc5F)c(=O)c(C(=O)O)cn6C5CC5)CC4)nn3)cc2)[C@H](N)[C@@H](O)[C@@H]1O	µg/mL	24

Let's switch to this compound now.
Qu. Given NC[C@@H]1O[C@H](O[C@H]2[C@@H](O)[C@H](O[C@@H]3[C@@H](O)[C@H](N)C[C@H](N)[C@H]3O[C@H]3O[C@H](CN)[C@@H](O)[C@H](O)[C@H]3N)O[C@@H]2C(=O)Nc2ccc(-c3cn(CC(O)CN4CCN(c5cc6c(cc5F)c(=O)c(C(=O)O)cn6C5CC5)CC4)nn3)cc2)[C@H](N)[C@@H](O)[C@@H]1O (stereo partly drawn) , respond with its MIC.
Ans. 6
